Values compiled from patent US20200347127A1.

# Target Desc: T1, recombinant human IL-17A (human, UniProt Q16552 24-155)
# T1 construct: Bought recombinant protein (Peprotech AF-200-17); also called Peprotech AF-200-17
# T1 sequence (Q16552 24-155): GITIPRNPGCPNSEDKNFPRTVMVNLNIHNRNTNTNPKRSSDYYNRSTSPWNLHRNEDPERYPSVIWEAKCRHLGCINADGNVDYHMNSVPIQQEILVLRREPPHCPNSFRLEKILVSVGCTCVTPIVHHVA
# Assay Text: SPR (BIAcore T200), IL-17A coupled to CM5 chip, single-cycle kinetics;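 note: VH domain analytes, kinetic constants obtained by fitting blank-corrected sensorgrams to a 1:1 binding model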
Metric Name: pKd
pKd here: minus log base 10 of the concentration, concentration in moles per litre.

**Query** Given the binder VH 1.6.1 (clone 1.6 expressed from phagemid vector: with linker residues and His tag) (VHH, Human single VH domain) VHH: EVQLVESGGGLVQPGGSLRLSCAASGFTFSSYSMYWVRQAPGKGLEWVAEIKQDGSEQYYVDSVKGRFTISRDNAKNSLYLQMNSLRAEDTAVYYCAKGEILPLYFDYWGQGTLVTVSS , what is its reported pKd?
**Result** 9.20

**Query** Given the binder Clone 1.11 (VHH, Human single VH domain) VHH: EVQLVESGGGLVQPGGSLRLSCAASGFTFSSYQMYWVRQAPGKGLEWVASIKQDGSEEYYVDSVKGRFTISRDNAKNSLFLQMNSLRAEDTAVYYCAKGEILPLYFDYWGQGTLVTVSS , what is its reported pKd?
**Result** 9.07

**Query** Given the binder Clone 1.15 (VHH, Human single VH domain) VHH: EVQLVESGGGLVQPGGSLRLSCAASGFTFSSYSMYWVRQAPGKGLEWVAEIRQDGSEQYYVDSVKGRFTISRDNAKNSLYLQMNSLRAEDTAVYYCAKGEILPLYFDYWGQGTLVTVSS , what is its reported pKd?
**Result** 9.63

**Query** Given the binder VH 1.7.1 (clone 1.7 expressed from phagemid vector: with linker residues and His tag) (VHH, Human single VH domain) VHH: QVQLVESGGGLVQPGGSLRLSCAASGFTFSSYGMYWVRQAPGKGLEWVAKIEQDGSEEYYVDSVKGRFTISRDNAKKSLYLQMNSLRAEDTAVYYCAKGEILPLYFDYWGQGTLVTVSS , what is its reported pKd?
**Result** 9.22
